# protein stability index annotations
B1: KRT18 (parent)
chain: PQVRDWSHYFKIIEDLRAQIFANT

Variants of: B1
Assay: protein stability index of a GFP-peptide fusion (GPS, HEK-293T) (PSI 1-6); higher = more stable;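 also: lentivirally expressed fusions sorted by FACS into six bins by GFP to DsRed ratio, PSI derived from sequencing read proportions per bin multiplied by bin number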
Settings: c terminus: a fixed tail appended
API doc: respond with a numeric literal and nothing else, no unit.

Here's what some known entries look like.
Variant description | Readout type | Result
A18V | protein stability index | 1.97
F21P | protein stability index | 2.15
P1Y | protein stability index | 2.22
F21Y | protein stability index | 3.6
A18L | protein stability index | 2.29

Exam item: For the variant shown here, "I20S" , give the reported protein stability index.
Marked response: 2.17

Exam item: Please do the same for "T24R" as well.
Marked response: 2.23

Exam item: Okay, and "V3Q" ?
Marked response: 2.52

Exam item: Also, "A18I" please.
Marked response: 2.13

Exam item: Okay, and "H8V" ?
Marked response: 2.17

Exam item: Please do the same for "I20A" as well.
Marked response: 2.07

These entries and their values trace back to the supplement of paper PMC10567573.
